Experiment: folding stability dG unfold from trypsin proteolysis; higher = more stable
Please mark rule met if the recorded folding stability dG unfold is equal to or greater than 0.2 kcal/mol, and rule not met if it falls below.

The examples below pair each entry with its known result.
{"columns": ["biopolymer.sequence", "assigned.class"],
 "data": [
  ["SAMKYTVKLPPGAEPIQPEELAALPYVEVVEVEISDGEDGTRTLTITVSPDVPEENVEKLKEYIEKKLKSAG [r14_421_JUSTAS]", "rule met"],
  ["SAGGMVKTITKPMPLEELEKVYEEAKEAIEAGYEVIFTYPLPDGTTITIKTDYETKKIVEIKTSKPVSSAGG [r13_873_JUSTAS]", "rule not met"],
  ["SAEYTPVGPNEDAEVWEVPNLGKLFTIDPKDDVVEITEVHFDDGDLSPHPHTVRVDVPEEDRDRLRDLLSAG [r14_245_TrMRF]", "rule not met"],
  ["SAGPMTLEILYKRPANEPFTLEDLELAKEVEEAVAALVPSKYKVRIKSIEYEKYPDYYYIRVTIEVEKPSAG [r5_121_TrMRF]", "rule met"],
  ["SAGSMLFDPNGVLREVSVTPDPSTGTTVTTTLVQWPVDDGNGNSVLERITTTTSPSGTVTTSTEVRPAPSAG [r5_303_JUSTAS]", "rule not met"]
]}

Turning now to a further record.
Test whether the sequence SAGGSAGGSAGFFRVDIDIMMSPEMLDLMKKNPGLPPGQEIPIMVVIKREPVPYDPNGKLSAGGSAGGSAGG [r17_194_TrROS] records folding stability dG unfold of 0.2 kcal/mol or higher.
rule met

---

Known folding stability dG unfold of a selection of sequences
Experiment: folding stability dG unfold from chymotrypsin proteolysis; higher = more stable
Give just the numeric value; kcal/mol need not be written.

{"columns": ["biopolymer.sequence", "value.units", "folding stability dG unfold"],
 "data": [
  ["SAGGSAGGSAGMKVTVTITYPGGKVTTLDGDPEEVKAALPSSLTDVKITVTDPATGKVAASAGGSAGGSAGG [r11_353_JUSTAS]", "kcal/mol", 0.838],
  ["SAGGSAGGSAGGKWRPITFPFPDGWYLQIYMNPDGDVKAEIYNPDGKPVEKTFPPGEPIFSAGGSAGGSAGG [r7_215_TrROS]", "kcal/mol", 1.67],
  ["SAGGSAGGGSLSKPKKYELVATFTFPGTVEEAKEFLEKLLPEDWKVEIEETPDFLKIKLYKRLDSAGGSAGG [r6_952_TrMRF]", "kcal/mol", 4.07]
]}

// switching to the query sequence
Give the measured folding stability dG unfold for SAGGSAGGSASLSPEKKVTIKTTVPQPTPPAVTTTLTGQFPSSLTLEELAEKDPNATVSITGSAGGSAGGSA [r18_279_JUSTAS]
1.36

---

Assay: folding stability dG unfold from trypsin proteolysis; higher = more stable
Each entry below lists one item and its recorded folding stability dG unfold value.
Just the number in kcal/mol, nothing appended.

# return recorded folding stability dG unfold for entry SAGMTITVKPGEKVKVTIKVEVFDENGKLIKKEEKEVEITVKEGDEITIKIKLDKPVKVKIEIKIEKKSAGG [r19_295_TrROS_Hall]
2.67

Write down folding stability dG unfold measured for item SAGGSAGGSAGGSMIVEEDPVGPEKVTTVTLPEKDKLVTVTETFLPDGSVVTTTTPVPSSAGGSAGGSAGGS [r4_332_JUSTAS]
1.8

Answer with reported folding stability dG unfold of SAGGSAGGYRIRFKNGIEFKLPMTEGELKKMADNFPGFEVTEVEPVPPPPPPPEDLPPEQREQMSAGGSAGG [r6_881_TrROS]
-0.134

Give folding stability dG unfold for the following sequence: SAGGMKPGEKTIRLLLKLPPGEELTPEQVEELAKRLAEELREKGYEVEVEVVERDGELYVLVEVRFPESAGG [r13_442_TrROS_Hall]
3.55

---

Test: folding stability dG unfold from trypsin proteolysis; higher = more stable
# folding stability dG unfold annotations
// note: answer is a bare numeric in kcal/mol

Known folding stability dG unfold results, listed for orientation:
{"columns": ["biopolymer.sequence", "folding stability dG unfold [kcal/mol]"],
 "data": [
  ["SAGGPKVVRIRYTMPPDQARDFIEELFGRPMSADDIADKLPPGFKVGIRAHPNPNGHVTFEIWIKLPDSAGG [r13_869_TrROS]", 2.37],
  ["SAGGSSYSVAQSPGPARLYSVPQPDGRVVEVDVEELPGGLLRVRVPDDPVPRLFPASLSLADIVSLSAGGSA [r2_338_JUSTAS]", 0.644],
  ["SAGGSAGGSAMKFPKGAKIEIVVTEDKVYVRIKTPGGKEIEVEMTLEELKKLGFEVEIVEEESAGGSAGGSA [r18_125_TrROS_Hall]", 1.75],
  ["SAKKKYIAKVLIEKGDKIIEIEIPGDATVKNPDGKEYTFKVESPEKLKEAIKKLFPEKYPAKILEVKEESAG [r14_41_TrMRF]", 1.18],
  ["SAGGSAGGSAGMKTTTLEVSTDPSGYTTTKTKIEIINENTPSISTSTVVTAVTPPAPPIASAGGSAGGSAGG [r11_830_JUSTAS]", 0.133],
  ["SKPDAPKIVELLRELFPDLEITSVSYDPETGTYTVTFPDGVVAEVHVDPNGNVHIVLRTPTSERTFTLPVSA [r9_304_TrMRF]", 2.68]
]}

Supply folding stability dG unfold value. Item: SAGGMSITITTNAPKEVLLRFIKDLAEEIGVEVDVEVTVEPLEDGPIVTAHVHIDPKEPEVPLEELFSAGGS [r16_262_TrMRF]
0.75

---

// values below are reported folding stability dG unfold
Assay: folding stability dG unfold (combined trypsin and chymotrypsin); higher = more stable
Provide only the numeric value, understood in kJ/mol.

{"columns": ["biopolymer.sequence", "reported.metric", "observed"],
 "data": [
  ["SAGGMKYLVTITITDPDTGQERVIEVEFPDMTPEEIKEAAEELAEEIASEQGLNLKVEVEVTPIPLLSAGGS [r8_185_JUSTAS]", "folding stability dG unfold", 14.9],
  ["SAGGGSTTTYSIPEGPLTLEVTTVTVGDGTVKKTVVTTPEGKRTEIPPSNPITIPPNWTVTSSVTLTSAGGS [r16_669_JUSTAS]", "folding stability dG unfold", 0.0493],
  ["SAGNPSLKLKTETQVEVTEVSESVLPDGGYTLTKSKFTVTTTIYDTTKPKVLSTETTEETETVATPLVSAGG [r19_136_JUSTAS]", "folding stability dG unfold", 0.293]
]}

Next up:
Quickly give me recorded folding stability dG unfold for SAGGSAGGSKKKKVIEIKISEEELKKLGLTKEEIAKKLAEKFPNIKKNVRIEKNKDGTLKIYVSAGGSAGGS [r12_50_TrROS_Hall]
4.94

---

Experiment: folding stability dG unfold from trypsin proteolysis; higher = more stable
reported.metric: folding stability dG unfold (kcal/mol)
Kindly provide the numeric value in kcal/mol only, without the unit symbol.

Here is how some sequences turned out for folding stability dG unfold.
{"columns": ["biopolymer.sequence", "folding stability dG unfold (kcal/mol)"],
 "data": [
  ["SAGGSAGGSMKLVTVKMKRPNGPVELTPVLPVDPSETLEEVKERVLELYPGAEITEITVTPDESAGGSAGGS [r12_738_JUSTAS]", -0.358],
  ["SMKIKIPVLIKVDPSETIEEVLEKVKEIAEEIAKFLESKGGPVEVKADVEPIPEIDYVIVTVEAYVPEEASA [r9_1161_TrMRF]", 1.53],
  ["SAGGSAGGSMSTVSTVTHPDGTPLTVTTTPLPDGTVLATYSAPDGTVVATFDVSTGTTVVVPLSAGGSAGGS [r20_159_JUSTAS]", 1.39]
]}

Identify measured folding stability dG unfold associated with SAGGSAGGSAGGMVVRITTKDGRTITFPPGTSLEELRSLPADEITRVEVVEVEPVRVVEPSAGGSAGGSAGG [r7_190_TrROS_Hall]
1.45

Identify measured folding stability dG unfold corresponding to SAGPKMKPIPFEFRNPDNGHKVKISVYYNPNGKRKIMITNPGDGRIYTFKINPGGIEIEKEIPLDDIKFSAG [r5_619_TrROS]
1.13

Specify measured folding stability dG unfold for SMKITTDPVNKTISATFPPGTDPLAETQKIVDEVKKKENSGDITITFSTGNTTINYTLGTNTVTTTPAGTSA [r9_224_JUSTAS] .
-0.0577

Find the measured folding stability dG unfold of SAGGMSLHIPLPANNEELAEELAEELRDLYAAIPGTPGEVEVDIEPTPEGGYRLIVRFPDHVDEIPASAGGS [r16_356_TrMRF] and report it.
1.3

---

Each entry below carries its recorded folding stability dG unfold.
Assay: folding stability dG unfold from chymotrypsin proteolysis; higher = more stable

Let me know recorded folding stability dG unfold for SAGGSAGGSAGTVEEIAKYFAGEFPNYKVNIDVEWEGGKITSVDIEWEVVPPPPPESPGKSAGGSAGGSAGG [r11_197_TrROS] , thanks.
0.309 kcal/mol

Kindly indicate its recorded folding stability dG unfold. Item: SAGWIIRITLPDNGRTIEIDFENGYIIKITSPDEGKPRVIPIPPDDIREWIKELFPGPVRIVEIYPLPKSAG [r5_519_TrROS]
3.09 kcal/mol
